Kindly state apparent KD of K4 kissing-loop reporter for each of the entries shown.
- System: K4 kissing-loop RNA reporter;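 note: bound reporter read as fluorescence of individual clusters on recovered sequencing chips by microscopy, with normalized cluster intensities fitted with a binding model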
- experiment: apparent KD of K4 kissing-loop reporter; higher = weaker reporter binding
- run parameters: Eterna round: R107; input ligand: theophylline 20 uM
Give bare numbers, in nM.

Entry GGGAGUAGUGCGGCCGCCACUGAGAAAGAAGAAGAAUAUAGUGAUGUUAUAUAGGAAAGGAAGAACAGGACCGGGCAUUAGAGGG [SSTRyptB.C] : reported apparent KD of K4 kissing-loop reporter = ?
243

Entry UGAUACCAGACGGCCGCCACUCCUGCAGUCAAAGACUGCUAAAGGAAAUUCGUCCAGUGAUGUUGGAGGACCGGGUCUGGUAUCU [TrypBX 13 #SwitchBubble #Palindromic #StaticStem] : reported apparent KD of K4 kissing-loop reporter = ?
810

Entry AUGUAUGAAUUAGGAUAUCGUGAUCCAUGCAUAUAUAUGAUAAAUGGAUAUGUCGUAGUGAUGUUACGAGAAGGAGUGUGGAGUA [KL-XFMN-B1] : reported apparent KD of K4 kissing-loop reporter = ?
93

Entry UCGAUGGUCAGCGAUACCAGCCCAGUGAUGUUGGGCACAUGGUUGCGGAAAAUCCCAUUGGGCCCUUGGCAGCGCUUGCAUGGGU [Titiquesan] : reported apparent KD of K4 kissing-loop reporter = ?
136

Entry AGACUUCACCGAAGGAGCGACGUAGCCUAGUGAUGUUAGGCGCGAGAGAAAUCUCGUAUACGUCAGGUAGGUCGCGGUGAAGUCA [Omei KL Arginine B SS C v4] : reported apparent KD of K4 kissing-loop reporter = ?
126

Entry AGUGAUGUUUUUUUUAAGAGUGAUGUUUUUCGAGGACCGGUACGGCCGCCACUCGAGUGAUGAGUGCGGUGUUGUGAUGUUUAGU [ewmullin] : reported apparent KD of K4 kissing-loop reporter = ?
475

Please give apparent KD of K4 kissing-loop reporter, item by item, for the list that follows.
1. CCUAUCUCAUACGAUACCAGUCAAUGAAAUUUUAUCAAUGCCAUCACCGAGUGAUGUUCGGACCCUUGGCAGCGUAUGGGAUAGG [Ex Theophylline B K4 3]
2. GUGCAGUGAUGUUGCACGAGGAAAGACGAUACCAGCCGUAAAUAAGGCCCUUGGCAGCGUGGGCUAGCAUAAAGUACGCUAGUCU [Mara]
3. UCGCACCUGUGGGCGAGGCCUAUAAUUGUCAAGGAUAUAGAUCAUUCUAGAAGGUGACACUUCGCGAGUGAUGUUCGGGAAAUGC [theeternabot_sameState_KL_FMN_A_8]
4. GGUAGCAUGGCGGCCGCCACUGGAGAGUGAUGUUCUCCACUAGGUUACAACGCCGGACAGUCCACCAGGACCGGGCCAUGCUACC
5. CCAACGUGAAAAGGAUAUCGCGAUGUGCACGACUAGUGAUGUUAGGAGAGGCUCGUUGAAUUGUACCGAGAAGGUUUUGAGUGGG [theeternabot_sameState_KL_FMN_B_16]
6. UCCUAUACCCUUCCCGGACGCCGUGGAGAUACCAGCCACGUAGCGGGCCCUUGGCAGCUCGAGUGAUGUUCGAGAUCGUCAGGAU [Veteve]

[329, 94, 245, 129, 231, 128]

* * *

Kindly state apparent KD of MS2 coat protein for each of the entries shown.
- Test system: MS2 coat protein
- experiment: apparent KD of MS2 coat protein; designed switch direction (-1 OFF switch, 1 ON switch): 1; higher = weaker reporter binding
- run parameters: input ligand: microRNA oligo, concentration not stated
Answers are plain numbers, in nM.

Answered cases to consult:
Record ACAUGAGGAUCACCCAUGUAUAGAAUUGAAUGUUAAGAUACGUAGGAUAUCGAGUUUAGUAUGAUCGAGAAGGACGAUCUGAUA [JR_SSNG3_Sub065] (Eterna round: R96, puzzle: Same State NG 3) : what is its apparent KD of MS2 coat protein with MS2 coat protein?
14.5

Record UGCCUGAGUCGAGGAUAUUAUGGAUCAAUUAAUACAUGAGGAUCACCCAUGUAAUUAAUUUAACAUGAGAAGGCGACUCAGGCU [SSNG2/10-A3] (Eterna round: R96, puzzle: Same State NG 2) : what is its apparent KD of MS2 coat protein with MS2 coat protein?
7.93

Record GCCGUAUAAACAUGAGGAUCACCCAUGUGCGCGAGAGCGAAUGAGGAUAUCGAUGGGUUUCCCGUCGAGAAGGCGUGGGUCGGC [JL SSNG3 3.96] (Eterna round: R96, puzzle: Same State NG 3) : what is its apparent KD of MS2 coat protein with MS2 coat protein?
76.4

Record GGAUGAUUGACAGGAUAUCAUUUGUAAAUUGGUUGAGAAGGGUCGAUUACUUACACGACCUGUUACAUGAGGAUCACCCAUGUU [SameState NG1 #3] (Eterna round: R96, puzzle: Same State NG 1) : what is its apparent KD of MS2 coat protein with MS2 coat protein?
20.5

Record UGGUACAUGGGAGGAUAUCAUGCAGACAUGAGGAUCACCCAUGUAGCCAUGGAGACAUGGGUAUAUGAGAAGGCCCAUGUACCU [JL SSNG1 3.53] (Eterna round: R96, puzzle: Same State NG 2) : what is its apparent KD of MS2 coat protein with MS2 coat protein?
37.7

Please give apparent KD of MS2 coat protein, item by item, for the list that follows.
1. GAGAGAGGAUGAGGAUAUGCAGUAAUAAUGAUAGCAGAAGGCAUAGACAUGAGGAUCACCCAUGUGGGAAUAAUCCAGAGAGAG [Parity 1 - Jieux - Same State NG 1] (Eterna round: R96, puzzle: Same State NG 1)
2. GUGGUCAGACAUGAGGAUCACCCAUGUGGAAUAAAUAAGGACAAGGAUAUGGAAUAUAGGAUAUACCAGAAGGUGUGGUUGGUG (Eterna round: R96, puzzle: Same State NG 3)
3. AUUAGUAAUGCAGGAUAUGAUUAACAUGAGGAUCACCCAUGUGGUGUUGUGAGUAAGGAGAGUGAUCAGAAGGGCAUUUUUUUU [JMF's solution 28] (Eterna round: R96, puzzle: Same State NG 2)
4. GCCGCGUUUCGCGCCUACAUGAGGAUCACCCAUGUUUGUAGGCAGGAUAUCGCUUGCUUUGCGGGCGAGAAGGGCUGUUGUGGC [salish99_SSNG3_R04_018] (Eterna round: R96, puzzle: Same State NG 3)

1. 132
2. 67.5
3. 411
4. 56.8
